// data source = PubChem BioAssay (NCI)

- Test system: HT29 colon
- test_description: NCI tumour cell line growth inhibition, 48 h
For each of the compounds below, state its TGI.

Data request: Form: Entry = Cn1c(=O)c(Oc2ccc(F)cc2F)cc2cnc(NC3CCC(O)CC3)nc21 (stereo unspecified) | System = HT29 colon | TGI = ____
Data returned: > 25 µM

Data request: Try this compound next: CCCCCCCCCCCCCCCC(=O)NCC(OCC)OCC
Data returned: > 100 µM

Data request: Try this compound next: COc1c(-c2nc3nc(N4CCN(C)CC4)ccc3[nH]2)cc(OC)c2c1nc(CCl)n2C
Data returned: 32.9 µM

Data request: Try this compound next: O=C(Nc1nc2ccc([N+](=O)[O-])cc2s1)c1cc([N+](=O)[O-])ccc1Cl
Data returned: 6.03 µM

Data request: Try this compound next: CC(=O)Oc1c(OC(C)C)cc(=O)n2ccsc12
Data returned: > 100 µM

Data request: Try this compound next: NS(=O)(=O)C1CCCCC1C(=O)NNC(=O)C(=O)Nc1nc(=S)[nH][nH]1 (stereo unspecified)
Data returned: > 100 µM

Data request: Try this compound next: O=C1NC2(CCCCC2)C2=C1CCCCC2
Data returned: > 100 µM

Data request: Try this compound next: CCOC(=O)c1sc2nc(SC)nc3c2c1NCN3c1ccccc1Cl
Data returned: > 100 µM

Data request: Try this compound next: CN(C)c1ccc(/C=C2\Cc3ccccc3C2=O)cc1Br
Data returned: > 100 µM

Data request: Try this compound next: C/C(=N\NC(=O)c1ccncc1)c1ccccc1O
Data returned: > 100 µM

Data request: Try this compound next: O=C1COc2c(CCNCCN(C(=O)CCNCCc3ccc(Cl)c(Cl)c3)C3CCCCC3)ccc(O)c2N1
Data returned: 33.8 µM

Data request: Try this compound next: O=C(Cn1c(-c2ccccc2)cc2ccccc21)N1CCOCC1
Data returned: > 100 µM

Data request: Try this compound next: CC1=C2[C@@H](c3ccccc3)C3C=CC2(C=C3C(F)(F)F)N(C(=O)NC2CCCCC2)C1=O (stereo partly specified)
Data returned: > 100 µM

Data request: Try this compound next: NNC(=O)COc1nc(-c2cccs2)nc2ccc(I)cc12
Data returned: > 100 µM

Data request: Try this compound next: CN(C)c1ccc(/C=C2\CCCCCC2=O)cc1
Data returned: > 100 µM

Data request: Try this compound next: CN1C/C(=C\c2ccco2)c2nc(N)nc(-c3ccco3)c2C1
Data returned: > 100 µM

Data request: Try this compound next: CCOC(=O)C1=C(O)c2c(OC)ccc(OC)c2C(=O)C1=O
Data returned: > 100 µM

Data request: Try this compound next: COc1cc(-c2nn(-c3cccc(NC(=O)c4cccc(C(F)(F)F)c4)c3)cc2-c2ccncc2)ccc1Cl
Data returned: 20.1 µM

Data request: Try this compound next: COc1cc2c(cc1OCCCN1CCN(CCCn3c4ccccc4c4ccccc43)CC1)N=C[C@@H]1CCCN1C2=O
Data returned: 0.289 µM

Data request: Try this compound next: CCOC(=O)c1c(/C=N\Nc2ccccc2)nc2ccccc2c1-c1ccccc1
Data returned: > 100 µM

Data request: Try this compound next: Cc1c(-c2ccc(N3CCc4cccc(C(=O)Nc5nc6ccccc6s5)c4C3)nc2C(=O)O)cnn1CC12CC3CC(CC(C3)C1)C2
Data returned: 25.3 µM
